assay: Pharmacokinetics of intraperitoneal or intravenous injection in CD1 mice; type: in vivo; details: male, CD1, mouse, plasma, iv, 1 mg/kg, IV 1.0 mg/kg, CD1 mice plasma, 4 h; read-out: Conc. (ng/mL) Mouse 1
value_kind: concentration at 4 h

[
  {
    "smiles_data": "Cc1ncsc1-c1ccc(CNC(=O)[C@@H]2C[C@@H](O)CN2C(=O)[C@@H](NC(=O)COCCOc2ccc(Nc3ncc(C(F)(F)F)c(NCc4cccc(N(C)S(C)(=O)=O)c4)n3)cc2)C(C)(C)C)cc1",
    "value_kind": "concentration at 4 h",
    "result": "1.84 ng/mL"
  },
  {
    "smiles_data": "Cc1ncsc1-c1ccc(CNC(=O)[C@@H]2C[C@@H](O)CN2C(=O)[C@@H](NC(=O)CCOCCCOc2ccc(Nc3ncc(C(F)(F)F)c(NCc4cccc(N(C)S(C)(=O)=O)c4)n3)cc2)C(C)(C)C)cc1",
    "value_kind": "concentration at 4 h",
    "result": "10.8 ng/mL"
  }
]

From: patent US20200038513A1
